Tested on: OVCAR-4
assayProtocol: NCI tumour cell line growth inhibition, 48 h
The source made the active and inactive calls. Cut-off read from the data, not from the text of the source: active = GI50 up to about 1.1 µM and inactive = higher.
API: response.call in active, inactive

As a guide, the following entries are already answered.
>  <molecule>
CC(=O)O[C@]1(C(C)=O)CC[C@H]2[C@@H]3C[C@H](C)C4=CC(=O)C=C[C@]4(C)[C@@]3(F)[C@@H](O)C[C@@]21C [FLUOROMETHOLONE ACETATE]

>  <assignedClass>
inactive

$$$$
>  <molecule>
C[C@]12CC(c3ccccc3O1)C(C(N)=O)C(=O)N2 (some centres not stated)

>  <assignedClass>
inactive

$$$$
>  <molecule>
Oc1c(Br)cc(CN(Cc2cc(Br)c(O)c(Br)c2)C2CCCCC2)cc1Br

>  <assignedClass>
inactive

$$$$
>  <molecule>
Cc1ccc(N2C(=O)C(=CN)C(=O)N(c3ccc(C)cc3)C2=O)cc1

>  <assignedClass>
inactive

$$$$

Consider the record given below.
Input line: What call does the record list for Cc1ccc(C(=O)N(C(C)C)C(C)C)cc1/N=N/N(C)C ?
Output line: inactive

----------
Tested on: DMS-114
assayProtocol: NCI tumour cell line growth inhibition, 48 h
Calls of active or inactive are those of the source. Rule as the data show it: active = GI50 up to about 1.1 µM and inactive = higher.
API: response.call in active, inactive

As a guide, the following entries are already answered.
>  <compound>
Cc1cn2c(=O)c3ccccc3nc2s1

>  <assignedClass>
inactive

$$$$
>  <compound>
COc1ccc(C(=O)OCC2OC(n3cnc4c(=S)nc[nH]c43)C(OC(=O)c3ccc(OC)cc3)C2OC(=O)c2ccc(OC)cc2)cc1 (stereo not given)

>  <assignedClass>
inactive

$$$$
>  <compound>
COC(=O)c1nc(-c2ccc3c(n2)C(=O)C(=N)C(OC)=C3O)c(N)c(-c2ccc(OC)c(OC)c2O)c1C

>  <assignedClass>
active

$$$$

Input line: What call does the record list for Cc1cc(C(O)CCCc2ccccc2)cc(C)c1O (stereo not given) ?
Output line: inactive

Input line: What call does the record list for CCOC(=O)C(=O)Nc1cc(Cl)ccc1Cl ?
Output line: inactive

Input line: What call does the record list for COc1cc2c(cc1OC)C(=O)Cc1ccc3c(c1CNCC2)OCO3 ?
Output line: inactive

Input line: What call does the record list for N#CC1=C(N)n2c(s/c(=C\c3ccc(Cl)cc3)c2=O)=C(c2nc3ccccc3[nH]2)C1c1ccc(Cl)cc1 (stereo not given) ?
Output line: inactive

Input line: What call does the record list for COc1ccc(C(=O)Cc2c(C(=O)c3ccccc3)c3ccccc3n2C(=O)c2ccccc2)cc1 ?
Output line: inactive

Input line: What call does the record list for COc1ccc2c(c1)[n+]([O-])c(/C(C)=N/NC(N)=S)c(C)[n+]2[O-] ?
Output line: inactive

Input line: What call does the record list for CSCC[C@@H]1C(=O)N(C)[C@H](C(C)(C)C)N1C(=O)c1ccccc1 ?
Output line: inactive

----------
As shown below, each of these compounds has a reported GI50 value.
System: NCI/ADR-RES
assayProtocol: NCI tumour cell line growth inhibition, 48 h
Active and inactive are the calls of the source. Cut-off read from the data, not from the text of the source: active = GI50 up to about 1.1 µM and inactive = higher.

A selection of reference data follows.
>  <itemSmiles>
Clc1ccc(/C=N/C23CC4CC(CC(C4)C2)C3)cc1Cl

>  <measuredEndpoint>
GI50

>  <testResult>
> 10 µM (inactive)

$$$$
>  <itemSmiles>
CCN(CC)Cc1sc2nc3ccccc3n2c1-c1ccc(OC)cc1

>  <measuredEndpoint>
GI50

>  <testResult>
15 µM (inactive)

$$$$
>  <itemSmiles>
N#C/C(=C\c1ccc(O)cc1)C(N)=O

>  <measuredEndpoint>
GI50

>  <testResult>
> 100 µM (inactive)

$$$$
>  <itemSmiles>
COc1ccc(CCn2cnc3ccccc32)cc1

>  <measuredEndpoint>
GI50

>  <testResult>
> 100 µM (inactive)

$$$$

--- query ---
Bench note, NCI/ADR-RES: entry C#CCOC(=O)[C@@H](C)c1ccc2cc(OC)ccc2c1 , its GI50 = 68.2 µM (inactive)
